Ref: PubChem BioAssay (NCI)

# Test system: HCT-15 colon
# ASSAY_PROTOCOL: NCI-60 one-dose screen, 48 h
# CONDITION_SET: 10 µM unless noted
# Experimental: Growth inhibition of the HCT-15 human tumor cell line is measured as a screen for anti-cancer activity. Cells are grown in 96 well plates and exposed to the test compound for 48 hours. Compounds are tested at a single concentration, which is 10^-5 M for most compounds. The reported endpoint is percent growth (GI% or GIPRCNT), where numbers from 0 - 100% represent growth inhibition, and numbers from -100% - 0 represent cell death. For example, a value of 40 represents 60% growth inhibition. […]
Compounds without any hit were thinned out: in the full panel of roughly 83,000, 20% have a hit. Activity calls are given as the source filed them. The calls were made as follows: active = growth percent below 10; inactive = the rest.
Log the outcome using a class from active, inactive

What outcome does the record of this test show for COc1ccc(C(=O)/C=C/c2cc(C(=O)c3cc(OC)c(OC)c(OC)c3)ccc2OC)cc1 ?
inactive

What outcome does the record of this test show for CC(C)CCC[C@@H](C)[C@H]1CC[C@H]2[C@@H]3CC[C@H]4C/C(=N/O)CC[C@]4(C)[C@H]3CC[C@]12C ?
inactive

What outcome does the record of this test show for c1ccn2nnnc2c1 ?
inactive

What outcome does the record of this test show for COc1ccc(C(=O)/C=C/c2cccc([N+](=O)[O-])c2)c(OC)c1 ?
active

What outcome does the record of this test show for O=C1CCCCC=C1C[N+](=O)[O-] ?
inactive

What outcome does the record of this test show for COc1ccc(S(=O)(=O)Nc2cc(/C=C\c3cc(OC)c(OC)c(OC)c3)cc(OC)c2OC)cc1OC ?
inactive

What outcome does the record of this test show for COc1ccc(OC)c(-c2ccc(-c3ccccc3N)c3[nH]c4ccccc4c23)c1 ?
inactive

What outcome does the record of this test show for COc1cc(-c2cc(/C=C3\CCCCC3=O)[nH]n2)cc(OC)c1OC ?
inactive

What outcome does the record of this test show for Cc1cc2c(C(C)C)c(O)c(O)c(C=NCCCCC(=O)O)c2c(O)c1-c1c(C)cc2c(C(C)C)c(O)c(O)c(C=NCCCCC(=O)O)c2c1O ?
inactive

What outcome does the record of this test show for CCN1C(=O)N(CC)C2Nn3c(s/c(=C\c4cccc(F)c4)c3=O)=NC21 (stereo not given) ?
inactive
